Entries and their koff
# Target of assay: T1, CD25 protein (Sino Biological, 10165-H08H) (UniProt P01589 22-213)
# T1 construct: Bought recombinant protein; It speaks elsewhere of human CD25; also called antigen CD25; IL-2Rα
# T1 sequence (looked up): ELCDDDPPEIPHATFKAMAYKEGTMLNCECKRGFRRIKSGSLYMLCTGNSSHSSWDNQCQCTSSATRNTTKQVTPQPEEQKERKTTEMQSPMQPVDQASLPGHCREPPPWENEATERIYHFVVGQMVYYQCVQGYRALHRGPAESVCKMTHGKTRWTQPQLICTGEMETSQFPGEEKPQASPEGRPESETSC
# Assay protocol: SPR (BIAcore 8K); antibody captured by anti-human IgG Fc, CD25 protein as analyte, 1:1 model

Binder	koff, s⁻¹
CD25Q2-BA9-IgG1 (antibody, V domains shown, IgG1 expressed in HEK293; also called CD25Q-BA9-IgG1) VH: QVQLQQWGAGLLKPSETLSLTCAVYGGSFSGYYWSWIRQPPGKGLEWIGEIDHSGSTIYNPSLKSRVTISLDTSKNQFSLKLSSVTAADTALYYCARGEAFDIWGQGTMVTVSS VL: DIVMTQSPSTLSASVGDRVTITCRASQSLRSYLAWYQQKPGKAPKLLIYKASSLESGVPSRFSGSGSGTEFTLTISSLQPDDFATYYCQQYNSYSWTFGQGTKVEIKR	0.000586
CD25Q14-BA443-IgG1 (antibody, V domains shown, IgG1 expressed in HEK293) VH: EVQLVQSGAEVKKPGESLKISCKGSGYSFSNYWIGWVRQMPGKGLEWMGIISPGDSTTKYSPSFQGQVTFSADKSTSTAYLQWSSLQASDTAMYYCVRGPYYLDYWGQGTLVTVSS VL: DIQMTQSPSTLSASVGDRVTITCRASQSVSGYLAWYQQKPGKAPKLLIYKTSSLESGVPSRFSGSGSGTDFTLTISSLQAEDVAVYYCQQYYSTPWTFGQGTKVEIKR	0.000201
CD25-MA251-IgG1 (antibody, V domains shown, also called CD25Q-MA251; control antibody) VH: QVQLKESGPGLVAPSQSLSITCTVSGFSLTSYGIQWVRQPPGKGLEWLGVIWAGGSTNYNSALMSRLSISKDNSKSQVFLKMNSLQTDDTAMYYCARAYGYDGSWLAYWGQGTLVTVSS VL: QIVLSQSPAILSASPGEKVTMTCRASSSVSYMHWYQQKPGSSPKPWIFATSNLASGVPARFSGSGSGTSYSLTINRVEAEDADTYYCQQWSSNPPTFGGGTKLEIKR	0.000912
CD25Q3-BA125-IgG1 (antibody, V domains shown, IgG1; also called CD25Q2-BA125) VH: EVQLVQSGAEVKKPGESLKISCKGSGYSFANYWIVWVRQMPGKGLEWMGIIYPDDSETRYSPSFQGQVTFSADKSISTAYLQWSSLKASDTAMYYCTRGPYYSDYWGQGTLVTVSS VL: DIQMTQSPSTLSASVGDRVTITCRASQIISGYLAWYQQKPGKAPKLLIYKASSLESGVPSRFSGSGSGAEFTLTISSLQPDDFATYYCQQYNSYTWTFGQGTKVEIKR	0.000301
CD25Q14-BA448-IgG1 (antibody, V domains shown, IgG1; The VH is copied as printed. 'YVVGQG' near its end may be a misprint of 'YWGQG') VH: EVQLVQSGAEVKKPGESLKISCKGSGYNFANYWIVWVRQMPGKGLEWMGITYPDDSETRYSPSFQGQVTFSADKSISTAYLQWSSLKASDTAMYYCTRGPYYSDYWGQGTLVTVSS VL: DIQMTQSPSTLSASVGDRVTITCRASQSISSWLAWYQQKPGKAPKLLIYKASSLESGVPSRFSGSGSGTEFTLTISSLQPDDFATYYCQQYDRFSWTFGQGTKVEIKR	0.000531
CD25Q11-BA402-IgG1 (antibody, V domains shown, IgG1 expressed in HEK293) VH: QVQLVQSGAEVKKPGESLKISCKGSGYSFSNYWIAWVRQMPGKGLEWMGIIYPGDSATRYSPSFQGQVTISADKSINTAYLQWSSLRASDTAMYYCARGPYYFEYWGQGTLVTVSS VL: DIVMTQSPSTLSASVGDRVTLTCRASQSISSYLAWYQQKPGKAPKLLIYKASTLESGVPSRFSGSGSGTEFTLTISSLQPDDFATYYCQHYNSYSVTFGGGTKVEIKR	0.000212
CD25Q14-CA705-IgG1 (antibody, V domains shown, IgG1 expressed in HEK293) VH: EVQLVQSGAEVKKPGESLKISCKGSGYSFANYWIVWVRQMPGKGLEWMGIIYPDDSETRYSPSFQGQVTFSADKSISTAYLQWSSLKASDTAMYYCTRGPYYSDYWGQGTLVTVSS VL: DIQMTQSPSTLSASVGDRVSITCRASQSIGSWLAWYQQKPGKAPKLLIFEASNLESGVPSRFSGSGSGTEFTLTISNLQPDDFATYYCQQYNSYSLTFGGGTKVEIKR	0.000752
CD25Q11-BA415-IgG1 (antibody, V domains shown, IgG1 expressed in HEK293) VH: QVQLVQSGTEVKKPGESLKISCEGVGYSFTTYWIGWVRQMPGKGLEWMGIIYPGDSITRYSPSFQGQVTISADKSINTAYLQWSSLMASDTAMYYCVRGPHWGDYWGQGTLVTVSS VL: DIQMTQSPSTLSASVGDRVTITCRASQSISTWLAWYQQKPGKAPKLLIYKASSLESGVPSRFSGSGSGTEFTLTISSLQPDDFAAYYCQQYSSYSWTFGQGTKVEIKR	0.000199

Cited source: patent US20220195055A1
